tested on: 22Rv1 cells; experiment: Cell-based assay, anti-proliferative activity (Cell Counting Kit-8, 72 hours); parameters: species or system human; conditions: Homo sapiens, 22Rv1, 72 h, read-out: IC50 (μM) (22Rvl)
Counter-ions that a name gives are not always drawn.
In this section we review reported IC50 values for a set of compounds.

compound: CC(=O)c1cnc2ccc(-c3cc(F)c(O)c(Cl)c3)nc2c1N[C@H]1CC[C@H](N)CC1 [Example 67, dihydrochloride]
IC50 / µM: 0.0061
--
compound: CC(=O)c1cnc2ccc(-c3ccc(O)c(OC(F)(F)F)c3)nc2c1N[C@H]1CC[C@H](CN(C)C)CC1 [Example 11, dihydrochloride]
IC50 / µM: 0.066
--
compound: CC(=O)c1cnc2ccc(-c3ccc(O)nc3)nc2c1N[C@H]1CC[C@H](CN(C)C)CC1 [Example 86, dihydrochloride]
IC50 / µM: 5.3
--
compound: CC(=O)c1cnc2ccc(-c3cc(Cl)c(O)c(Cl)c3)nc2c1NCC1CCN(C)CC1 [Example 27, dihydrochloride]
IC50 / µM: 0.1
--
compound: CC(=O)c1cnc2ccc(-c3cc(F)c(O)c(Cl)c3)nc2c1Nc1ccc(N2CCC[C@@H](N)C2)nc1 [Example 96]
IC50 / µM: 0.026
--
compound: CC(=O)c1cnc2ccc(-c3ccc(O)cc3)nc2c1N[C@H]1CC[C@H](CN(C)C)CC1 [Example 88, dihydrochloride]
IC50 / µM: 0.04
--
compound: N[C@H]1CCCN(c2ccc(Nc3c(C(=O)C4CC4)cnc4ccc(-c5cc(F)c(O)c(Cl)c5)nc34)cn2)C1 [Example 83]
IC50 / µM: 0.025

====

tested on: A549 cells; test: Cell-based assay, anti-proliferative activity (Cell Counting Kit-8, 72 hours); parameters: species or system human; conditions: Homo sapiens, A549, 72 h, read-out: IC50 (μM) (A549)
Where a name gives a salt, the structure may show the parent alone.
Recorded IC50 values for a group of molecules are listed next.

molecule: CC(=O)c1cnc2ccc(Cl)nc2c1N[C@H]1CC[C@H](CN(C)C)CC1 [Example 1]
IC50: 2.7 µM
//
molecule: CC(=O)c1cnc2ccc(-c3cn[nH]c3)nc2c1N[C@H]1CC[C@H](CN(C)C)CC1 [Example 42, trihydrochloride]
IC50: 0.049 µM
//
molecule: CC(=O)c1cnc2ccc(-c3cc(F)c(O)c(Cl)c3)nc2c1N[C@H]1CC[C@H](CN2CCCC2)CC1 [Example 62, dihydrochloride]
IC50: 0.011 µM
//
molecule: CC(=O)c1cnc2ccc(-c3cc(Cl)c(O)c(Cl)c3)nc2c1N[C@H]1CC[C@H](CN2CCCC2)CC1 [Example 61, dihydrochloride]
IC50: 0.012 µM
//
molecule: N[C@H]1CCCN(c2ccc(Nc3c(C(=O)C4CCC4)cnc4ccc(-c5cc(F)c(O)c(Cl)c5)nc34)cn2)C1 [Example 210, dihydrochloride]
IC50: 0.042 µM
//
molecule: CN(C)C[C@H]1CC[C@H](Nc2c(S(C)(=O)=O)cnc3ccc(-c4cc(Cl)c(O)c(Cl)c4)nc23)CC1 [Example 12, dihydrochloride]
IC50: 0.053 µM

====

biological target: MELK (Homo sapiens, UniProt Q14680); assay: Kinase assay (IMAP fluorescence polarization, FITC-labeled histone H3 peptide); type: biochemical; conditions: 50 micro-M ATP
Sequence (Q14680 whole entry, looked up): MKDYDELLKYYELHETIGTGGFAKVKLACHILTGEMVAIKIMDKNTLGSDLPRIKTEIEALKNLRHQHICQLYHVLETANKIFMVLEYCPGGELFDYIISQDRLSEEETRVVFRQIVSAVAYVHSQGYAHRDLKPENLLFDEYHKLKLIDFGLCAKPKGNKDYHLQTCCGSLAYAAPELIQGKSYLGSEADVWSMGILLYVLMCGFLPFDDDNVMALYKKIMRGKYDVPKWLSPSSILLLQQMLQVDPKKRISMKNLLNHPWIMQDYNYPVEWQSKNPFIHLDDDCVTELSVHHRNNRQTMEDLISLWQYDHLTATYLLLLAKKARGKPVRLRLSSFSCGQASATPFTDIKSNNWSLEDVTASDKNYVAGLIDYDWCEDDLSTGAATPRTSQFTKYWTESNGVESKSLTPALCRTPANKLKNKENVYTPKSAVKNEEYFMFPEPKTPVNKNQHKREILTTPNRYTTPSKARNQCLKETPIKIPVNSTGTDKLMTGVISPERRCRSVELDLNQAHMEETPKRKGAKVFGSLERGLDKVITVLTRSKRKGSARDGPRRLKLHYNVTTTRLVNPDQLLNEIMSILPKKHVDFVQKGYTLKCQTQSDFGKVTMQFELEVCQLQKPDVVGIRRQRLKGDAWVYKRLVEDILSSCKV
Structures can show the parent of a compound that is named as a salt.
// reported log10 of IC50 per item
readout.type: log10 of IC50 (log10 of the value in µM)

compound: CN(C)C[C@H]1CC[C@H](Nc2c(C(=O)CO)cnc3ccc(-c4cc(Cl)c(O)c(Cl)c4)nc23)CC1 [Example 44, dihydrochloride]
numeric.value: -3.52
//
compound: COc1cc(-c2ccc3ncc(C(C)=O)c(Nc4ccc(OCCN(C)C)nc4)c3n2)cc(Cl)c1O [Example 23, dihydrochloride]
numeric.value: -2.05
//
compound: CN(C)C[C@H]1CC[C@H](Nc2c(C(=O)C3CCC3)cnc3ccc(-c4cc(Cl)c(O)c(Cl)c4)nc23)CC1 [Example 211, dihydrochloride]
numeric.value: -2.57
//
compound: CC(=O)c1cnc2ccc(-c3cc(Cl)c(O)c(Cl)c3)nc2c1NCC1CCN(C)CC1 [Example 27, dihydrochloride]
numeric.value: -3.15
//
compound: CN(C)C[C@H]1CC[C@H](Nc2c(C(=O)CO)cnc3ccc(-c4cc(F)c(O)c(Cl)c4)nc23)CC1 [Example 204, dihydrochloride]
numeric.value: -2.89
//
compound: CC(=O)c1cnc2ccc(-c3cc(Cl)c(O)c(Cl)c3)nc2c1Nc1ccc(N2CCC[C@@H](N)C2)nc1 [Example 95, trihydrochloride]
numeric.value: -2.70
